# Test system: Rattus norvegicus
# experimental details: Tested orally in rats for antagonism of stereotypies induced by amphetamine
# Type: functional
# particulars: Rattus norvegicus, po; read-out: ED50
observed property: ED50 (µmol/kg)
Write the number in µmol/kg without appending the unit.

CC(C)(O)CN1CCN(C2CC(c3ccc(F)cc3)c3ccc(F)cc32)CC1 (trans isomer): 30
OCCN1CCN([C@@H]2C[C@@H](c3ccc(Cl)cc3)c3ccc(C(F)(F)F)cc32)CC1 (relative stereo): 22
CCN1CCN(C2CC(c3ccc(F)cc3)c3ccc(F)cc32)CC1.Cl.Cl (trans isomer): 14

### Prompt Complete the entry with ED50 for Cl.Cl.OCCCN1CCN(C2CC(c3ccc(F)cc3)c3ccc(F)cc32)CC1 (centres undefined)
### Response 5.2

* * *

Dear all, this message contains pIC50 results, target or system Sodium-dependent serotonin transporter (Rattus norvegicus).
pIC50 field: float, defined as -log10 of concentration (mol/L).

Answered cases to consult:
CN1CCN(C2CC(c3ccc(F)cc3)c3ccc(F)cc32)CC1.Cl.Cl (stereo in doubt; 56): 5.21
OCCN1CCN(C2CC(c3ccc(F)cc3)c3ccc(F)cc32)CC1 (stereo not given): 5.01
CN1CCN(C2CC(c3ccc(F)cc3)c3ccc(F)cc32)CC1.Cl.Cl (stereo in doubt; 53): 5.70
CN1CCN(C2CC(c3ccc(F)cc3)c3ccc(F)cc32)CC1.Cl.Cl (stereo in doubt; 55): 6.20

As a next step, examine the compound that follows.
### Prompt Give reported pIC50 for Cl.Cl.OCCCCN1CCN(C2CC(c3ccc(F)cc3)c3ccc(F)cc32)CC1 (cis isomer) (Sodium-dependent serotonin transporter (Rattus norvegicus))
### Response 5.72

* * *

# study system: Sodium-dependent dopamine transporter (Rattus norvegicus, UniProt P23977)
# Sequence (P23977 whole entry): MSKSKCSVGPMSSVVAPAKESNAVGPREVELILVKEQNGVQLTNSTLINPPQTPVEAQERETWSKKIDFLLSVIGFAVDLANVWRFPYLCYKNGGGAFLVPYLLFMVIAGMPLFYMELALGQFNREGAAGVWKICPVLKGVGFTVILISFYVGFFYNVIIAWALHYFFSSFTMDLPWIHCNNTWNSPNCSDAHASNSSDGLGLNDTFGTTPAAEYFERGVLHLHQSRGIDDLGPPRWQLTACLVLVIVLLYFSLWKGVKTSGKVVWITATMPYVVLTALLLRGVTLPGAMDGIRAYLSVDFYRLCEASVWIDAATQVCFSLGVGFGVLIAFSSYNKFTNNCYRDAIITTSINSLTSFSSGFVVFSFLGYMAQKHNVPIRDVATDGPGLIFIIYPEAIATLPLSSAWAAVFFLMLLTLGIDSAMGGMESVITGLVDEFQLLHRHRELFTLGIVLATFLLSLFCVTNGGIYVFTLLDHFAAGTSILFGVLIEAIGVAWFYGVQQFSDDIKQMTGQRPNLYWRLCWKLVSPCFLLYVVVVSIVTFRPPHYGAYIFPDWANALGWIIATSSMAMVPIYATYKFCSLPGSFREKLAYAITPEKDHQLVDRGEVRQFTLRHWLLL
Reported pIC50 values for a set of compounds
Worth noting: pIC50 values are minus log10 of concentrations stated in mol/L.

Examples with their reported pIC50 follow.
Cl.Cl.OCCCCN1CCN(C2CC(c3ccc(F)cc3)c3ccc(F)cc32)CC1 (trans isomer): 7.60
CN1CCN(C2CC(c3ccc(F)cc3)c3ccc(F)cc32)CC1.Cl.Cl (stereo in doubt; 53): 6.74
Cl.Cl.Fc1ccc(C2CC(N3CCN(C/C=C/c4ccccc4)CC3)c3cc(F)ccc32)cc1 (stereo in doubt; 64): 6.68
CN1CCN(C2CC(c3ccc(F)cc3)c3ccc(F)cc32)CC1.Cl.Cl (single isomer, unassigned; (+)): 5.74
CN1CCN(C2CC(c3ccc(F)cc3)c3ccc(F)cc32)CC1.Cl.Cl (stereo in doubt; 56): 6.96
Cl.Cl.OCCCCN1CCN(C2CC(c3ccc(F)cc3)c3ccc(F)cc32)CC1 (cis isomer): 8.05

// next item, pIC50 requested
### Prompt Answer briefly: pIC50 recorded on Sodium-dependent dopamine transporter (Rattus norvegicus, UniProt P23977) for Fc1ccc(C2CC(N3CCN(C/C=C/c4ccccc4)CC3)c3cc(F)ccc32)cc1 (stereo in doubt; 63)
### Response 6.47

* * *

# study system: Sodium-dependent serotonin transporter (Rattus norvegicus, UniProt P31652)
# Sequence (P31652 whole entry): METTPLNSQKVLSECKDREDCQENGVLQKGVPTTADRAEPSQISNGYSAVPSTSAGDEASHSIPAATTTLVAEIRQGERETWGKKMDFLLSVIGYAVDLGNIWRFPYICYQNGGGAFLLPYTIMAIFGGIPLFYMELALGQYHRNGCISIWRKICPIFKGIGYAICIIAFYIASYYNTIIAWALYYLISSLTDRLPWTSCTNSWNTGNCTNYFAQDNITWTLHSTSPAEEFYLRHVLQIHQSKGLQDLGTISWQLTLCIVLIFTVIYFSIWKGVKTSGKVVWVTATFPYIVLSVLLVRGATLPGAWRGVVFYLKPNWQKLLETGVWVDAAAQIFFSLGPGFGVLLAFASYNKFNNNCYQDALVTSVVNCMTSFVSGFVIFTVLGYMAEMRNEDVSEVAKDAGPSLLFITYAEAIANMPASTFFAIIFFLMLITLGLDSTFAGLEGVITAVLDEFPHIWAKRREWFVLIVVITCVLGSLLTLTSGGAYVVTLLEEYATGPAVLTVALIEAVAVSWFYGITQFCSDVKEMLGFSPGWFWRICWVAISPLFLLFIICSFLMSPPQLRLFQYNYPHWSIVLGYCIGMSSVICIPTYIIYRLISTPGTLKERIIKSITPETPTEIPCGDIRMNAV
# experimental details: Effect on synaptosomal uptake inhibition of 5-hydroxytryptamine (5-HT)
# Type: functional
Let's look at some compounds and their measured log10(IC50).
Hi team, quick reminder: these entries are log10 of IC50 (nM).

Cl.Cl.OCCN1CCN(C2CC(c3ccc(Cl)c(Cl)c3)c3ccccc32)CC1 (cis isomer): 2.78
CN1CCN(C2CC(c3ccc(Cl)c(Cl)c3)c3ccccc32)CC1.Cl.Cl (stereo in doubt; 97): 2.80
CN(C)C[C@@H]1C2CCC(CC2)[C@@H]1c1ccc(Cl)c(Cl)c1 (relative stereo): 1.71

### Prompt Assign log10(IC50) to the following record: Cl.Cl.OCCCN1CCN(C2CC(c3ccc(Cl)c(Cl)c3)c3ccccc32)CC1 (stereo not drawn)
### Response 2.64

### Prompt Consider the compound CN1CCN(C2CC(c3ccc(Cl)c(Cl)c3)c3ccccc32)CC1.Cl.Cl (single isomer, unassigned; 95) . State its measured log10(IC50).
### Response 3.40

### Prompt Look up and report measured log10(IC50) for this entry: CN1CCN(C2CC(c3ccc(Cl)c(Cl)c3)c3ccccc32)CC1.Cl.Cl (single isomer, unassigned; 96)
### Response 2.36

### Prompt Complete the entry with log10(IC50) for CN1CCN(C2CC(c3ccc(Cl)c(Cl)c3)c3ccccc32)CC1.Cl.Cl (single isomer, unassigned; 98)
### Response 3.36

### Prompt Please supply the value of reported log10(IC50) for the item CN1CCN(C2CC(c3ccc(Cl)c(Cl)c3)c3ccccc32)CC1.Cl.Cl (single isomer, unassigned; 99)
### Response 2.72

* * *

# Organism: Mus musculus
# experimental details: animal or person
# particulars: ip
# Description: Compound (administered intraperitoneally) was assessed for neuroleptic activity to antagonize methyl phenidate induced stereotypes in mice
observed property: ED50

OCCN1CCN(C2CC(c3ccc(F)cc3)c3ccccc32)CC1 (centres undefined): > 118 µmol/kg

### Prompt Tell me its ED50 given NC(=O)CN1CCN(C2CC(c3ccc(F)cc3)c3ccc(F)cc32)CC1 (trans isomer) as the entry.
### Response > 88 µmol/kg

* * *

Values of IC50 reported for Norepinephrine transporter (Rattus norvegicus, UniProt Q9WTR4) appear below.
Only the number, expressed in nM, is required.

### Prompt Name the recorded IC50 of CN1CCN(C2CC(c3ccc(Cl)c(Cl)c3)c3ccccc32)CC1.Cl.Cl (single isomer, unassigned; 95) , assay system Norepinephrine transporter (Rattus norvegicus, UniProt Q9WTR4).
### Response 120

### Prompt Tell me IC50 of CN(C)C[C@@H]1C2CCC(CC2)[C@@H]1c1ccc(Cl)c(Cl)c1 (relative stereo) when tested on Norepinephrine transporter (Rattus norvegicus, UniProt Q9WTR4).
Sequence (Q9WTR4 whole entry): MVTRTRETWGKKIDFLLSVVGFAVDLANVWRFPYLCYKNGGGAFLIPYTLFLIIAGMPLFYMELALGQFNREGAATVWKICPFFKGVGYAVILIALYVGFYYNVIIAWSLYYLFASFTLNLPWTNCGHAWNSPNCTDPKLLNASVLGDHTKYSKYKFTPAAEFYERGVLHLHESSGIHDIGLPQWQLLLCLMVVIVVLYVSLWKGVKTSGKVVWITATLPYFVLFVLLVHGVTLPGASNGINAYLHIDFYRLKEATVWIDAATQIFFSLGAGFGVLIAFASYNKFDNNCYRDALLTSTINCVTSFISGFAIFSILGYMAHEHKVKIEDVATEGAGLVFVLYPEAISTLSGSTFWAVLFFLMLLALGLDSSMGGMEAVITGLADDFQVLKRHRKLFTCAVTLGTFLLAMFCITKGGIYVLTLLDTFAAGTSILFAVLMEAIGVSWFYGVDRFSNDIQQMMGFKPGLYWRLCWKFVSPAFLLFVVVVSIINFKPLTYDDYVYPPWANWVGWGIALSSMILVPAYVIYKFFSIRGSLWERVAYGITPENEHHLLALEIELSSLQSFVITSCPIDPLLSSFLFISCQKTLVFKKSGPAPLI
### Response 5.4

### Prompt Report IC50 on Norepinephrine transporter (Rattus norvegicus, UniProt Q9WTR4) for this entry: CN1CCN(C2CC(c3ccc(Cl)c(Cl)c3)c3ccccc32)CC1.Cl.Cl (single isomer, unassigned; 99)
### Response 2.5

### Prompt Using Norepinephrine transporter (Rattus norvegicus, UniProt Q9WTR4) as the test system, report measured IC50 of CN1CCN(C2CC(c3ccc(Cl)c(Cl)c3)c3ccccc32)CC1.Cl.Cl (single isomer, unassigned; 96) .
### Response 7.8

### Prompt Given Cl.Cl.OCCCN1CCN(C2CC(c3ccc(Cl)c(Cl)c3)c3ccccc32)CC1 (stereo not drawn) , report its IC50 on Norepinephrine transporter (Rattus norvegicus, UniProt Q9WTR4).
### Response 0.3

### Prompt Report IC50 from Norepinephrine transporter (Rattus norvegicus, UniProt Q9WTR4) testing of CN1CCN(C2CC(c3ccc(Cl)c(Cl)c3)c3ccccc32)CC1.Cl.Cl (single isomer, unassigned; 98)
### Response 910

### Prompt Name the recorded IC50 of CN1CCN(C2CC(c3ccc(Cl)c(Cl)c3)c3ccccc32)CC1.Cl.Cl (trans isomer) , assay system Norepinephrine transporter (Rattus norvegicus, UniProt Q9WTR4).
### Response 32

### Prompt Report value only: IC50, Norepinephrine transporter (Rattus norvegicus, UniProt Q9WTR4), CN1CCN(C2CC(c3ccc(Cl)c(Cl)c3)c3ccccc32)CC1.Cl.Cl (stereo in doubt; 97)
### Response 7.7

* * *

Recorded IC50 values (Dopamine receptor) are given below.
Express your answer in nM, writing the number without its unit.

The cases that follow already have their IC50 on record.
Cl.Cl.OCCN1CCN(C2CC(c3ccc(Cl)cc3Cl)c3ccccc32)CC1 (trans isomer): 4500
Cl.Cl.Clc1ccc(C2CC(N3CCN(C/C=C/c4ccccc4)CC3)c3ccccc32)cc1Cl (stereo in doubt; 104): 100
CN1CCN(C2CC(c3ccc(Cl)c(Cl)c3)c3ccccc32)CC1.Cl.Cl (single isomer, unassigned; 99): 2.3

### Prompt Given Cl.Cl.OCCN1CCN(C2CC(c3ccc(Cl)cc3Cl)c3ccccc32)CC1 (cis isomer) , report its IC50 on Dopamine receptor.
### Response 2000

### Prompt Send back Dopamine receptor IC50 of CN1CCN(C2CC(c3ccc(Cl)c(Cl)c3)c3ccccc32)CC1.Cl.Cl (trans isomer) only.
### Response 11

### Prompt Please report the measured IC50 for CN1CCN(C2CC(c3ccc(Cl)c(Cl)c3)c3ccccc32)CC1.Cl.Cl (single isomer, unassigned; 98) tested on Dopamine receptor.
### Response 1700

### Prompt Provide measured IC50 on Dopamine receptor for Cl.Cl.OCCN1CCN(C2CC(c3ccc(Cl)c(Cl)c3)c3ccccc32)CC1 (trans isomer) please.
### Response 2.8

### Prompt Provide IC50, recorded with Dopamine receptor, of OCCCN1CCN(C2CC(c3ccc(Cl)c(Cl)c3)c3ccccc32)CC1 (stereo not given)
### Response 15

### Prompt Provide measured IC50 on Dopamine receptor for CN1CCN(C2CC(c3ccc(Cl)c(Cl)c3)c3ccccc32)CC1.Cl.Cl (single isomer, unassigned; 96) please.
### Response 10

### Prompt Look up and report measured IC50 (Dopamine receptor) for the following compound: Cl.Cl.OCCCN1CCN(C2CC(c3ccc(Cl)c(Cl)c3)c3ccccc32)CC1 (stereo not given)
### Response 5.6

### Prompt Please report IC50 with Dopamine receptor for item Cl.Cl.OCCN1CCN(C2CC(c3ccc(Cl)c(Cl)c3)c3ccccc32)CC1 (cis isomer) .
### Response 12

### Prompt // fetch IC50; item: Cl.Cl.Clc1ccc(C2CC(N3CCN(C/C=C/c4ccccc4)CC3)c3ccccc32)cc1Cl (cis isomer) ; system: Dopamine receptor
### Response 35

### Prompt Jot down IC50 (Dopamine receptor) of CN1CCN(C2CC(c3ccc(Cl)c(Cl)c3)c3ccccc32)CC1.Cl.Cl (stereo in doubt; 97) .
### Response 4.4

### Prompt Retrieve IC50 on Dopamine receptor; query CN1CCN(C2CC(c3ccc(Cl)c(Cl)c3)c3ccccc32)CC1.Cl.Cl (single isomer, unassigned; 95)
### Response 340

### Prompt Send back Dopamine receptor IC50 of CN1Cc2c(N)cccc2C(c2ccccc2)C1 (stereo not given) only.
### Response 48
